# credit: paper PMC3749136

# tgt: T1, JAK1 JH1 domain (UniProt P23458 875-1153)
# T1 construct: JAK1, JH1 (kinase) domain; also called JAK1 kinase (JH1) domain; active JAK1 JH1 domain
# measurementProtocol: SPR; SOCS5 175-244 immobilised by amine coupling on a CM5 chip; JAK JH1 domains (62.5 nM to 2 µM) injected; 10 mM HEPES pH 8.0, 200 mM NaCl, 3.0 mM EDTA, 0.05% Tween20; steady-state fit, apparent KD; BIAcore3000
# assaySetup: both partners purified
pKd: −log10 of the molar value.
measuredParameter: pKd

{"binder": "SOCS5 175–244 fragment (domain or fragment, mouse, UniProt O54928 175-244, looked up, SOCS5, mouse, residues 175-244 (region conserved in SOCS4); Mass by LC-MS 8103 Da; also called JIR; source: E. coli BL21 (DE3), GST fusion purified on glutathione-Sepharose 4B, cleaved with TEV, RP-HPLC; not shown: GST, N-terminal, cleaved) RSLRQRLQDTVGLCFPMRTYSKQSKPLFSNKRKIHLSELMLEKCPFPAGSDLAQKWHLIKQHTAPVSPHS", "measuredParameter": "pKd", "quantitativeResult": 6.30}
